Target: T1, human DLL3 (ACRO, DLL3-H52H4) (human, UniProt Q9NYJ7 27-492)
T1 construct: Bought
T1 sequence: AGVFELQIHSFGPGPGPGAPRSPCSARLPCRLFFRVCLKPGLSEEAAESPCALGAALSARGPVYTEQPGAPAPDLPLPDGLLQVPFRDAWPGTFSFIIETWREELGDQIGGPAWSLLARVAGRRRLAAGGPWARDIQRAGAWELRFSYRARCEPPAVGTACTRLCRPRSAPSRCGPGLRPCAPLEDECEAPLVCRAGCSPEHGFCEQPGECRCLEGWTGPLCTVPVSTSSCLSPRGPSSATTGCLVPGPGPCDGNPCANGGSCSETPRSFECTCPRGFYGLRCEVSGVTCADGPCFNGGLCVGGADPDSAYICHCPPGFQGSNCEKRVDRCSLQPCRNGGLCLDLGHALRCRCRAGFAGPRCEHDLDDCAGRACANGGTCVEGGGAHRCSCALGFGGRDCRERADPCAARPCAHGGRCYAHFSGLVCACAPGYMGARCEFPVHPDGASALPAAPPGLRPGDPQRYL
Assay: SPR Biacore 8K, Ab captured on Protein A
From the text: Test antibodies were affinity-captured with a Protein A biosensor chip (Cat. #29127556, Cytiva) for 18 seconds, and then the antigens human DLL3 (ACRO, DLL3-H52H4), cynomolgus monkey DLL3 (KACTUS, DLL-RM103), mouse DLL3 (KACTUS, DLL-MM103), human CD3D&3E (ACRO, CDD-H52W1), and monkey CD3D&3E (ACRO, CDD-C52W4) were allowed to flow through the surface of the chip for 180 seconds, followed by 600 seconds of dissociation. […]
Could you please report measured Kd for the items listed next?
One number for each entry, in nM.

hu30L1H8 (antibody, human IgG1, kappa, V domains shown) VH: EVRLVQFGAVVKKPGASVKVSCKASGYTFTDYYMNWVRQAPGQSLEWMGIINPYTGDTSYNQKFRGRVTLTVDKSSSTAYMELSSLRSEDTAVYYCARYHYGPHLEGYFDVWGQGTTVTVSS VL: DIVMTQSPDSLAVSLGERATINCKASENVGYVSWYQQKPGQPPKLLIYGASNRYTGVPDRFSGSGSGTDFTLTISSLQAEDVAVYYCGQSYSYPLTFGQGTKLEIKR ... 2.57
hu30L4H10 (antibody, human IgG1, kappa, V domains shown) VH: EVRLVQSGAEVKKPGASVKVSCKASGYTFTDYYMNWVRQSHGQSLEWMGIINPYTGDTSYNQKFRGRVTLTVDKSASTAYMELSSLRSEDTAVYYCARYHYGPHLEGYFDVWGQGTTVTVSS VL: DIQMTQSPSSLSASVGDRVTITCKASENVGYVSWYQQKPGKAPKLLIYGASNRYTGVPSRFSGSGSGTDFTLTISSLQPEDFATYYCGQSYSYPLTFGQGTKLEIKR ... 2.16

Consider now this further binder.
### Prompt Please report the measured Kd for hu98L3H5 (antibody, human IgG1, kappa, V domains shown) VH: EVQLVESGGGLVQPGGSLRLSCAASGFTFSDYGMHWVRQAPGKGLEWVAYISSGGYTSYYADTVKGRFTISRDNAKNSLYLQMNSLRAEDTAVYYCARGDYEDIFYTMDYWGQGTTVTVSS VL: DIQMTQSPSSLSASVGDRVTITCRASRDITKFLNWYQQKPGGAVKLLIYYTSRLHSGVPSRFSGSGSGTDYTLTISSLQPEDFATYYCQQGNTLPWTFGGGTKVEIKR
### Response 1.22
